# protocol: chemical genetic growth profiling, strain panel (AID 1159580);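 also: tested at 20 µM; growth read once vehicle control cultures reached saturation at 30 °C; 1 = growth at the plate median or of vehicle wells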
# condition-label: S. cerevisiae deletion strains, growth OD, locus YKL203C, strain TOR2, stronger effect = lower value
The whole screen tested about 5,500 compounds, of which about 2,000 (36%) were called active. Another 18% or so got no clear call; they are omitted. This is one part of the list.
normalized growth strictly under 0.1 means Yes; at 0.1 or over means No.

• COc1c(Br)csc1C(=O)O/N=C(/N)c1cc(C(F)(F)F)cc(C(F)(F)F)c1 = No
• O=S(=O)(Oc1ccc(-c2csnn2)cc1)c1ccccc1Cl = No
• CC(=O)c1ccc(Cl)c(N=Cc2cc(Br)cc(Br)c2O)c1 = No
• O=C(NOC(=O)c1ccccc1)c1ccccc1 = Yes
• CCOC(=O)c1ccc(Cl)c(N=Cc2cc(Cl)cc(Cl)c2O)c1 = No
• CCOC(=O)/C(C#N)=C(\Nc1ccc(C(=O)OCC)cc1)SC = No

* * *

# protocol: chemical genetic growth profiling, strain panel (AID 1159580);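 also: tested at 20 µM; growth read once vehicle control cultures reached saturation at 30 °C; 1 = growth at the plate median or of vehicle wells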
# condition-label: S. cerevisiae deletion strains, growth OD, locus YOR070C, strain gyp1
Out of some 5,500 compounds screened, about 2,000 (36%) were called active. Roughly 18% stayed inconclusive and do not appear here. Rule as the data show it: active = normalized growth mostly below about 0.91 (no sharp cut-off); inconclusive = no clear call, values can overlap the other calls; inactive = mostly above about 0.92. Some of the results follow.
Possible outcomes: label 1 = active, label 0 = inactive

* COC(=O)c1c(OC)cc2c(c1C)Oc1c(Cl)c(OC(C)=O)c(Cl)c(C)c1C(=O)O2 | label 0
* CC(=O)O[C@H]1CC[C@@]2(C)C(=CC(=O)C3C4CCC(C(C)CCCC(C)C)[C@@]4(C)CCC32)C1 (stereo not given in full) | label 0
* COC(=O)c1c(OC)cc2c(c1C)Oc1c(Cl)c(O)c(Cl)c(C)c1C(=O)O2 | label 0
* CN(C)[C@@H]1C(=O)C(C(N)=O)=C(O)[C@@]2(O)C(=O)C3=C(O)c4c(O)cccc4[C@@](C)(O)[C@H]3[C@H](O)[C@@H]12 | label 0
* CC1(C)CC2C1CC[C@]1(C)CCC3C(C(=O)O)CC(=O)O[C@@]32C1 (stereo not given in full) | label 1
* CCCc1cc(=O)[nH]c(=S)[nH]1 | label 0
* C=C1c2cccc(O)c2C(O)=C2C(=O)[C@]3(O)C(O)=C(C(N)=O)C(=O)[C@@H](N(C)C)[C@@H]3[C@@H](O)[C@H]12 | label 0
* CC(C)CCCC(C)C1CCC2C3C[C@@H](O)[C@@]4(O)C[C@@H](O)CC[C@]4(C)C3CC[C@]12C (stereo not given in full) | label 0
* Cc1cc(=O)[nH]c(=S)[nH]1 | label 0
* CC12CCC3C(CC3(C)C)C(C)(CCC1=O)O2 (stereo not given) | label 0
* COC(=O)c1c(C)c2c(c(C)c1O)OC(=O)c1c(C)c(Cl)c(O)c(Cl)c1O2 | label 0
* N=C(N)N | label 0
* CC(=O)N[C@@H](Cc1c[nH]c2ccccc12)C(N)=O | label 0
* Nc1ccc(C(=O)O)cc1 | label 0
* CC(C)=CC1C(C(=O)O)C1(C)C (stereo not given) | label 0
* N[C@@H](CCC(=O)N[C@@H](CS)C(=O)NCC(=O)O)C(=O)O | label 0
* O=P1(NCCCl)OCCCN1CCCl (stereo not given) | label 0
* Cc1cc(=O)oc2cc(O)c(O)cc12 | label 0
* Cc1cc(=O)oc2cc(O)cc(O)c12 | label 0
* CC(C)CCCC(C)C1CCC2C3=CC[C@H]4C[C@@H](O)CC[C@]4(C)C3CC[C@@]21C (stereo not given in full) | label 0
* C=C1C[C@]23C[C@@]1(O)CC[C@H]2[C@@]12C=C[C@H](O)[C@@](C)(C(=O)O1)[C@H]2[C@@H]3C(=O)O | label 0
* CC1=CC(=O)c2ccccc2C1=O | label 0
* NC1=NCCN1CC(=O)O | label 0
* C=C1c2c(Cl)ccc(O)c2C(O)=C2C(=O)[C@]3(O)C(O)=C(C(N)=O)C(=O)[C@@H](N(C)C)[C@@H]3[C@@H](O)[C@H]12 | label 0
* NC(Cn1ccc(=O)c(O)c1)C(=O)O (stereo not given) | label 0
